Values were extracted from paper PMC3558805.

Assay: Multiple rising dose plasma PK, OZ439 oral dispersion once daily for 3 days
Assay type: in vivo, human
Details: human, plasma, po, 800 mg, AUC(0,24 h), 800 mg once a day for 3 days, oral dispersion, day 1; geometric mean (CV%)
reported.endpoint: AUC(0-t) (ng·h/mL)
Report only the number, with the unit ng·h/mL understood.

input: Which AUC(0-t) is listed for c1cc([C@H]2CC[C@]3(CC2)OO[C@]2(O3)C3CC4CC(C3)CC2C4)ccc1OCCN1CCOCC1 [OZ439] ?
output: 9570

---

Assay: Single rising dose plasma PK, OZ439 capsule, fasted healthy subjects
Type: in vivo, human
Conditions: human, plasma, oral, 800 mg
reported.endpoint: concentration at 24 h

input: Find the recorded concentration at 24 h belonging to c1cc([C@H]2CC[C@]3(CC2)OO[C@]2(O3)C3CC4CC(C3)CC2C4)ccc1OCCN1CCOCC1 and report it.
output: > 20 ng/mL

---

Assay: Single rising dose plasma PK, OZ439 oral dispersion, fasted healthy subjects
Format: in vivo, human
Conditions: human, plasma, po, 400 mg
reported.endpoint: Tmax (h)
Provide only the numeric value, understood in h.

input: Any idea what its Tmax is? The compound is c1cc([C@H]2CC[C@]3(CC2)OO[C@]2(O3)C3CC4CC(C3)CC2C4)ccc1OCCN1CCOCC1
output: 3

---

Assay: Single rising dose plasma PK, OZ439 capsule, fasted healthy subjects
Format: in vivo, human
Details: both, human, plasma, oral, 100 mg
reported.endpoint: Tmax (h)
Express your answer in h, writing the number without its unit.

input: Please give the measured Tmax for this molecule: c1cc([C@H]2CC[C@]3(CC2)OO[C@]2(O3)C3CC4CC(C3)CC2C4)ccc1OCCN1CCOCC1
output: 5

---

Assay: Multiple rising dose plasma PK, OZ439 oral dispersion once daily for 3 days
Assay type: in vivo, human
Settings: human, plasma, po, 800 mg, tmax, 800 mg once a day for 3 days, oral dispersion, day 3; median (range)
reported.endpoint: Tmax (h)
Numbers only here, please. The scale is h.

input: Consider the molecule shown here: c1cc([C@H]2CC[C@]3(CC2)OO[C@]2(O3)C3CC4CC(C3)CC2C4)ccc1OCCN1CCOCC1 [OZ439] What is its recorded Tmax?
output: 3

---

Assay: Single rising dose plasma PK, OZ439 capsule, fasted healthy subjects
Format: in vivo, human
Settings: human, plasma, oral, 800 mg
reported.endpoint: AUC(0-inf)
I'd appreciate it if you included the unit after the number.

input: Could you share which AUC(0-inf) value was measured for c1cc([C@H]2CC[C@]3(CC2)OO[C@]2(O3)C3CC4CC(C3)CC2C4)ccc1OCCN1CCOCC1 ?
output: 4690 ng·h/mL

---

Assay: Single rising dose plasma PK, OZ439 capsule, fasted healthy subjects
Assay type: in vivo, human
Conditions: human, plasma, oral, 400 mg
reported.endpoint: Tmax (h)
Report the value in h with no unit label.

input: Endpoint output: Tmax of c1cc([C@H]2CC[C@]3(CC2)OO[C@]2(O3)C3CC4CC(C3)CC2C4)ccc1OCCN1CCOCC1 . Value?
output: 3

---

Assay: Multiple rising dose plasma PK, OZ439 oral dispersion once daily for 3 days
Type: in vivo, human
Conditions: human, plasma, po, 800 mg, AUC(0,24 h), 800 mg once a day for 3 days, oral dispersion, day 3; geometric mean (CV%)
reported.endpoint: AUC(0-t) (µg·h/mL)
Provide the reading as a plain figure in µg·h/mL.

input: Can you look up the measured AUC(0-t) of c1cc([C@H]2CC[C@]3(CC2)OO[C@]2(O3)C3CC4CC(C3)CC2C4)ccc1OCCN1CCOCC1 for me?
output: 13.7
